Values were extracted from patent US10519111B2.

# assay-name: UV absorption properties (λmax, molar extinction coefficient ε, efficiency E 1%, 1 cm)
# Assay type: physicochemical
# conditions-used: Table 13B, miscellaneous compounds
# key: entry, value: λmax
Kindly provide the numeric value in nm only, without the unit symbol.

Query :: Provide one value: measured λmax of `CC1(C)CCN(C(C)(C)C)C=C1C(=O)N(Cc1ccc(CN(C(=O)C2=CN(C(C)(C)C)CCC2(C)C)c2ccccc2)cc1)c1ccccc1`
Result :: 314

***
Query :: Provide one value: measured λmax of `CC1(C)CCN(C(C)(C)C)C=C1C(=O)c1ccc(Nc2ccccc2)cc1`
Result :: 315

Query :: Provide one value: measured λmax of `CC1(C)CCN(c2ccc(N3C=C(C(=O)CC4CCCCC4)C(C)(C)CC3)cc2)C=C1C(=O)CC1CCCCC1`
Result :: 360

* * *

# key: entry, value: λcrit
# assay-name: Critical wavelength (λcrit), approximate in-house measurement
# Assay type: physicochemical
# conditions-used: Table 4
Kindly provide the numeric value in nm only, without the unit symbol.

Query :: Provide one value: measured λcrit of Cc1ccc(N2C=C(C(=O)Nc3ccc(C)c(NC(=O)C4=CN(C(C)(C)C)CCC4(C)C)c3)C(C)(C)CC2)cc1 [drawing 67]
Result :: 340

Query :: Provide one value: measured λcrit of CC1(C)CCN(c2ccc(C(C)(C)C)cc2)C=C1C(=O)Nc1ccc(NC(=O)C2=CN(c3ccc(C(C)(C)C)cc3)CCC2(C)C)cc1 [drawing 68]
Result :: 354

Query :: Provide one value: measured λcrit of Cc1ccc(N2C=C(C(=O)Nc3ccccc3)C(C)(C)CC2)cc1 [drawing 69]
Result :: 342

Query :: Provide one value: measured λcrit of CC1(C)CCN(c2ccc(C(C)(C)C)cc2)C=C1C(=O)Nc1ccccc1 [drawing 70]
Result :: 342

* * *

# assay-name: UV absorption properties (λmax, molar extinction coefficient ε, efficiency E 1%, 1 cm)
# Format: physicochemical
# conditions-used: Table 13B; values in order of the λmax values; in M-1 cm-1
# key: entry, value: ε
// response body must contain only the number

Please review the entries below; each comes with its answer.
Query :: Provide one value: measured ε of `CC1(C)CCN(c2ccc(N3C=C(C(=O)CCC(F)(F)F)C(C)(C)CC3)cc2)C=C1C(=O)CCC(F)(F)F`
Result :: 59296

Query :: Provide one value: measured ε of `CC1(C)CCN(C(C)(C)C)C=C1C(=O)/C=C/c1ccc(C(=O)C2=CN(C(C)(C)C)CCC2(C)C)cc1`
Result :: 27646

Query :: Provide one value: measured ε of `CCCCNc1ccc(C(=O)C2=CN(C(C)(C)C)CCC2(C)C)cc1`
Result :: 21545

Query :: Provide one value: measured ε of `COC(=O)c1cc(/C=C/C(=O)C2=CN(C(C)(C)C)CCC2(C)C)ccc1/C=C/C(=O)C1=CN(C(C)(C)C)CCC1(C)C`
Result :: 30128

Query :: Provide one value: measured ε of `CCC(=O)C1=CN(c2ccc(N3C=C(C(=O)CC)C(C)(C)CC3)cc2)CCC1(C)C`
Result :: 52638

***
Query :: Provide one value: measured ε of `CC1(C)CCN(C(C)(C)C)C=C1C(=O)/C=C/c1ccc(/C=C/C(=O)C2=CN(C(C)(C)C)CCC2(C)C)c([N+](=O)[O-])c1`
Result :: 24359

Query :: Provide one value: measured ε of CCCCCCC(=O)C1=CN(c2ccc(N3C=C(C(=O)CC(C)CCC=C(C)C)C(C)(C)CC3)cc2)CCC1(C)C (stereo not shown)
Result :: 52353

Query :: Provide one value: measured ε of `CCCCCCCCCCCCCCCCCC(=O)C1=CN(c2ccc(N3C=C(C(=O)CCCCCCCCCCCCCCCCC)C(C)(C)CC3)cc2)CCC1(C)C`
Result :: 37068

Query :: Provide one value: measured ε of `CC1(C)CCN(C(C)(C)C)C=C1C(=O)c1ccccc1`
Result :: 25447

Query :: Provide one value: measured ε of `CCC(=O)C1=CN(c2ccc(Oc3ccc(N4C=C(C(=O)CC)C(C)(C)CC4)cc3)cc2)CCC1(C)C`
Result :: 58063

* * *

# key: entry, value: UV λmax
# assay-name: UV absorption properties (λmax, molar extinction coefficient ε, efficiency E 1%, 1 cm)
# Format: physicochemical
Kindly provide the numeric value in nm only, without the unit symbol.

Please review the entries below; each comes with its answer.
Query :: Provide one value: measured UV λmax of `COc1ccc(C(=O)C2=CN(CC(C)C)CCC2(C)C)c(OC)c1`
Result :: 313

Query :: Provide one value: measured UV λmax of `CC(C)CN1C=C(C(=O)/C=C/c2ccccc2)C(C)(C)CC1`
Result :: 360

Query :: Provide one value: measured UV λmax of `CC1(C)CCN(C(C)(C)C)C=C1C(=O)CCCCCCCCC(=O)C1=CN(C(C)(C)C)CCC1(C)C`
Result :: 307

Query :: Provide one value: measured UV λmax of `C=CCCC(=O)C1=CN(CC(C)C)CCC1(C)C`
Result :: 308

Query :: Provide one value: measured UV λmax of `CC1(C)CCN(c2ccc(C(C)(C)C)cc2)C=C1C(OC(=O)C1c2ccccc2-c2ccccc21)=C1c2ccccc2-c2ccccc21`
Result :: 407

Query :: Provide one value: measured UV λmax of `Cc1ccc(N2C=C(C(=O)Nc3ccccc3)C(C)(C)CC2)cc1`
Result :: 323

***
Query :: Provide one value: measured UV λmax of `COc1ccc(N2C=C(C(=O)C(F)(F)F)C(C)(C)CC2)cc1`
Result :: 339

Query :: Provide one value: measured UV λmax of `CCCCNC(=O)C1=CN(C(C)(C)C)CCC1(C)C`
Result :: 288

Query :: Provide one value: measured UV λmax of `COc1ccc(N2C=C(C(=O)COc3ccccc3)C(C)(C)CC2)cc1`
Result :: 339

* * *

# assay-name: UV absorption properties (λmax, molar extinction coefficient ε, efficiency E 1%, 1 cm)
# Assay type: physicochemical
# conditions-used: Table 6A, N-isobutyl-C3-benzoyl compounds
measured-quantity: λmax
Give me the value, and tack the unit on after it.

Please review the entries below; each comes with its answer.
Query :: Provide one value: measured λmax of CC(C)CN1C=C(C(=O)c2ccc(C(=O)c3ccccc3)cc2)C(C)(C)CC1 [drawing 90]
Result :: 295 nm

Query :: Provide one value: measured λmax of CC(C)CN1C=C(C(=O)c2ccc(C(=O)C3=CN(CC(C)C)CCC3(C)C)cc2)C(C)(C)CC1 [drawing 88]
Result :: 320 nm

Query :: Provide one value: measured λmax of CC(C)CN1C=C(C(=O)c2cc(C(=O)C3=CN(CC(C)C)CCC3(C)C)cc(C(=O)C3=CN(CC(C)C)CCC3(C)C)c2)C(C)(C)CC1 [drawing 89]
Result :: 316 nm

Now turn to the next molecule.
Query :: Provide one value: measured λmax of CC(C)CN1C=C(C(=O)c2ccccc2)C(C)(C)CC1 [drawing 87]
Result :: 316 nm

* * *

# assay-name: Critical wavelength (λcrit), approximate in-house measurement
# Type: physicochemical
# conditions-used: Table 6B
measured-quantity: λcrit (nm)
Kindly provide the numeric value in nm only, without the unit symbol.

Please review the entries below; each comes with its answer.
Query :: Provide one value: measured λcrit of C=CC(=O)C1=CN(C(C)(C)C)CCC1(C)C [drawing 92]
Result :: 360

Query :: Provide one value: measured λcrit of CC1(C)CCN(C(C)(C)C)C=C1C(=O)c1ccc(C(=O)C2=CN(C(C)(C)C)CCC2(C)C)cc1 [drawing 97]
Result :: 355

Query :: Provide one value: measured λcrit of CC1(C)CCN(C(C)(C)C)C=C1C(=O)c1ccc(C(=O)O)cc1 [drawing 98]
Result :: 353

Query :: Provide one value: measured λcrit of CN(C)c1ccc(C(=O)C2=CN(C(C)(C)C)CCC2(C)C)cc1 [drawing 95]
Result :: 361

Query :: Provide one value: measured λcrit of CC1(C)CCN(C(C)(C)C)C=C1C(=O)c1ccc(Br)cc1 [drawing 94]
Result :: 347

***
Query :: Provide one value: measured λcrit of CC1(C)CCN(C(C)(C)C)C=C1C(=O)/C=C/c1ccccc1 [drawing 93]
Result :: 385

Query :: Provide one value: measured λcrit of CC(C)(C)Oc1ccc(C(=O)C2=CN(C(C)(C)C)CCC2(C)C)cc1 [drawing 96]
Result :: 344

* * *

# assay-name: Critical wavelength (λcrit), approximate in-house measurement
# Type: physicochemical
# conditions-used: Table 9
# Description: As the precise test for critical wavelength was unable to be replicated exactly by the inventors due to the need for specialist equipment and a specific calibration of the spectrophotometer, these values are only approximate to a degree. […] This represents a highly useful result and so, compounds based around this benzoyl substitution pattern shown, are especially preferred.
# key: entry, value: λcrit
Kindly provide the numeric value in nm only, without the unit symbol.

Please review the entries below; each comes with its answer.
Query :: Provide one value: measured λcrit of CC1(C)CCN(c2cccc3ccccc23)C=C1C(=O)C(F)(F)F [drawing 143]
Result :: 348

Query :: Provide one value: measured λcrit of CC1(C)CCN(c2ccc(C(C)(C)C)cc2)C=C1C(=O)C(F)(F)F [drawing 139]
Result :: 361

Query :: Provide one value: measured λcrit of CN(C)c1ccc(N2C=C(C(=O)C(F)(F)F)C(C)(C)CC2)cc1 [drawing 141]
Result :: 385

Query :: Provide one value: measured λcrit of COc1ccc(N2C=C(C(=O)C(F)(F)F)C(C)(C)CC2)cc1 [drawing 140]
Result :: 365

***
Query :: Provide one value: measured λcrit of Cc1ccc(N2C=C(C(=O)C(F)(F)F)C(C)(C)CC2)cc1 [drawing 142]
Result :: 361
